Source: patent US20240010684A1

- MEASURED ON: T1, recombinant human MASP1 (amino acids 297-699, C-terminal His Tag) (human, UniProt P48740 297-699)
- T1 sequence: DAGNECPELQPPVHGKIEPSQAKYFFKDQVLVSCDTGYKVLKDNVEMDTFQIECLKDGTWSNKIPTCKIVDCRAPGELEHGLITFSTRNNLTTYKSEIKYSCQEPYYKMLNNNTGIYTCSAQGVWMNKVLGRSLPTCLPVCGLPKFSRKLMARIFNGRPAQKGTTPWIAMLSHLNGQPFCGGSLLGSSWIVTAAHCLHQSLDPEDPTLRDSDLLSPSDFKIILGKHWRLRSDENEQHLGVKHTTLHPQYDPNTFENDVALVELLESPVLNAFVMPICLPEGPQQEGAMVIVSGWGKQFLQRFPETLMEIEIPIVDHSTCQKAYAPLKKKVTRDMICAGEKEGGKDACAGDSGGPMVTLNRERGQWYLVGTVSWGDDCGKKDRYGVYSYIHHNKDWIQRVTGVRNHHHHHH
- ASSAY INFO: cell-based or functional assay
*1 amine or outer side, *2 acyl side, *3 side chain or, on linkers, in order; H or OH if unused. Bridges are numbered along the chain shown (N, C = ends). Where no end group is shown, it is not given here. [ ]: non-standard residue; d: D form. TTDS = 1,13-diamino-4,7,10-trioxatridecan-succinamic acid, O=C(CCC(=O)[*:2])NCCCOCCOCCOCCCN[*:1]; Oic = O=C(O)[C@@H]1C[C@@H]2CCCC[C@@H]2N1; Adipoyl = O=C(CCCCC(=O)[*:2])[*:1]; tBuAla = CC(C)(C)C[C@H](N)C(=O)O; Pen = CC(C)(S)[C@H](N)C(=O)O; Dap = NC[C@H](N)C(=O)O; PEG2 = NCCOCCOCCC(=O)O; Ahx = NCCCCCC(=O)O
Returns: string. Value is fulfilled if measured human MASP1 IC50 is below 30 nM, and not fulfilled if it is greater than or equal to it.

For orientation, consider the following solved cases.
INSERT INTO results (binder, group_label) VALUES
  ('[Ahx]GAICSRSLP[Oic]I[Pen]IPE-NH2 (disulfide 5-13; lactam N-16; also: TFA salt) [Example 82: (Ahx)**-GAIC+SRSLP-(Oic)-I-(Pen)+-IPE++-NH2]', 'not fulfilled'),
  ('cyclo([TTDS]AICSRS[tBuAla]PPI[Pen]IPD) (disulfide 4-12; also: TFA salt) [Example 63: (TTDS)**-AIC+SRS-((tBu)A)-PPI-(Pen)+-IPD**]', 'fulfilled'),
  ('EGICSRSLP[Oic]I[Pen]IPDK-NH2 (lactam 1-16; disulfide 4-12; also: TFA salt) [Example 91: E++GIC+SRSLP-(Oic)-I-(Pen)+-IPDK++-NH2]', 'fulfilled'),
  ('Adipoyl-ICSRS[tBuAla]PPI[Pen]IPD[Dap]-NH2 (lactam (positions not given here); disulfide 2-10; not fully specified (bridges); also: TFA salt) [Example 60: (Adipic acid)**-IC+SRS-((tBu)A)-PPI-(Pen)+-IPD-(Dap)++-NH2]', 'not fulfilled'),
  ('[Dap]GGICSRSLPPICIPD (lactam 1-C; disulfide 5-13; also: TFA salt) [Example 20: (Dap)++-GGIC+SRSLPPIC+IPD**]', 'not fulfilled'),
  ('cyclo([Dap][Dap]ICSRSLP[Oic]I[Pen]IP) (disulfide 4-12; also: TFA salt) [Example 89: (Dap)**-(Dap)-IC+SRSLP-(Oic)-I-(Pen)+-IP**]', 'fulfilled'),
  ('[Ahx]G[dA]ICSRSLP[Oic]I[Pen]IPE-NH2 (disulfide 5-13; lactam N-16; also: TFA salt) [Example 84: (Ahx)**-GaIC+SRSLP-(Oic)-I-(Pen)+-IPE++-NH2]', 'fulfilled'),
  ('cyclo([PEG2]AICSRS[tBuAla]PPI[Pen]IPD) (disulfide 4-12; also: TFA salt) [Example 34: (PEG1(10 atoms))**-AIC+SRS-((tBu)A)-PPI-(Pen)+-IPD**]', 'fulfilled');

Here is another binder to look at.
Q. Item [3‑azido‑L‑alanine]GAICSRS[tBuAla]PPICIP[L‑propargylglycine]-NH2 (triazole 1-16; disulfide 5-13; also: TFA salt) : human MASP1 IC50 beneath 30 nM, strictly?
A. fulfilled
